Measured Intrinsic Activity (adenylate cyclase assay) by item
test system: dopamine D-1 receptor; settings: dopamine = 100; goldfish retina or rat striatum
Form field (numeric): enter value without unit.

Check out these entries, answers already filled in.
CN(C)C[C@@H]1O[C@H](C2(c3ccccc3)CCCCC2)Cc2c1ccc(O)c2O (relative stereo); 34
NC[C@@H]1O[C@H](CC2CCCCC2)Cc2c1ccc(O)c2O (relative stereo); 133
O=CO.Oc1ccc2c(c1O)CC(c1ccccc1)C1=C2CNC1 (stereo not shown); 47

Ask | # value lookup — system dopamine D-1 receptor, readout Intrinsic Activity (adenylate cyclase assay), item NC[C@H]1O[C@@H](CCO)Cc2c1ccc(O)c2O (relative stereo)
Reply | 136

----------
target: dopamine D-1 receptor (Rattus norvegicus); assay: biochemical; details: D-1 Ki, rat caudate, [125I]SCH-23982
Sequence (P18901 whole entry): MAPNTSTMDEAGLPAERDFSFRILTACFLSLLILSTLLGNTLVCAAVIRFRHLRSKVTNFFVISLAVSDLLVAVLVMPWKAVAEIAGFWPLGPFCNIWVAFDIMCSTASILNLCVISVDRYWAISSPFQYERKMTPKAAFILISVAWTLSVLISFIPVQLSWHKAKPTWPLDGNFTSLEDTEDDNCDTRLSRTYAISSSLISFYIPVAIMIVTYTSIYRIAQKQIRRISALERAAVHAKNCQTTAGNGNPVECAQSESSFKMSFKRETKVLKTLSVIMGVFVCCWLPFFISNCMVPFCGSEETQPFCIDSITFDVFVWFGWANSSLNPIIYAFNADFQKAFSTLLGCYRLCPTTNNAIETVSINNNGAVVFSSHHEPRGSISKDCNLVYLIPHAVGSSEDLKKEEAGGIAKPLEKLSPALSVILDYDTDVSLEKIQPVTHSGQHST
Measured Ki by item

Check out these entries, answers already filled in.
CNCC1OC2(CCCCCCC2)Cc2c1ccc(O)c2O (stereo not drawn) [Example 142]; 190 nM
Br.NC[C@@H]1C[C@H](C2CCCCC2)Cc2c1ccc(O)c2O [Example 37, Hydrobromide]; 57 nM
CCCCCC[C@@H]1Cc2c(ccc(O)c2O)[C@H](CN)O1 (relative stereo) [Example 68]; 100 nM
CC(C)=CCCC(C)[C@@H]1Cc2c(ccc(O)c2O)[C@H](CN)O1 (stereo partly drawn) [Example 74]; 100 nM
CCCC1(CCC)Cc2c(ccc(O)c2O)C(CN)C1 (stereo not drawn) [Example 198]; 3700 nM

Moving on to another molecule below.
Ask | # value lookup — system dopamine D-1 receptor (Rattus norvegicus), readout Ki, item CCOC(=O)Oc1ccc2c(c1OC(=O)OCC)CC(c1ccccc1)C=C2CN (stereo not drawn) [Example 29]
Reply | 6000 nM

----------
system: dopamine D-1 receptor; settings: dopamine = 100; goldfish retina or rat striatum
quantityMeasured: Intrinsic Activity (adenylate cyclase assay)

Check out these entries, answers already filled in.
CNC[C@H]1O[C@@H](CCO)Cc2c1ccc(O)c2O (relative stereo) [Example 174]; 90
NC[C@@H]1O[C@H](C23CC4CC(CC(C4)C2)C3)Cc2c1cc(F)c(O)c2O [Example 103]; 88
CNC[C@H]1O[C@@H](CC(C)(C)C)Cc2c1ccc(O)c2O (relative stereo) [Example 146]; 82

Moving on to another molecule below.
Ask | Using the record for CCC1Cc2c(ccc(O)c2O)C(CN)O1 (stereo not shown) [Example 67] , report its Intrinsic Activity (adenylate cyclase assay).
Reply | 92

----------
target: dopamine D-1 receptor; details: read-out: EC50 (agonist activity in adenylate cyclase assay); tissue from goldfish retina or rat striatum
Measured EC50 by item

Ask | # value lookup — system dopamine D-1 receptor, readout EC50, item CN1CCC2=C(C1)c1ccc(O)c(O)c1CC2c1ccccc1 (stereo not drawn) [Example 247]
Reply | 30 nM

Ask | # value lookup — system dopamine D-1 receptor, readout EC50, item NC[C@H]1O[C@@H](COc2ccccc2)Cc2c1ccc(O)c2O (relative stereo) [Example 55]
Reply | 24 nM

Ask | # value lookup — system dopamine D-1 receptor, readout EC50, item CC(C)(C)[C@@H]1Cc2c(ccc(O)c2O)[C@H](CN)C1 (relative stereo) [Example 195]
Reply | 400 nM

----------
test system: dopamine D-1 receptor; settings: dopamine = 100; goldfish retina or rat striatum
Measured Intrinsic Activity (adenylate cyclase assay) by item
Form field (numeric): enter value without unit.

Check out these entries, answers already filled in.
CC(C)C[C@@H]1Cc2c(ccc(O)c2O)[C@H](CN)O1 (relative stereo) [Example 89]; 130
NCC1CC2(CCCCCCCC2)Cc2c1ccc(O)c2O (stereo not shown) [Example 236]; 36
NC[C@H]1O[C@@H](CNC(=O)c2ccc(Br)cc2)Cc2c1ccc(O)c2O (relative stereo) [Example 167]; 125
CC[C@H]1Cc2c(ccc(O)c2O)[C@@H](CN)O1 (relative stereo) [Example 51]; 88
CCNC[C@@H]1O[C@H](C(C)(C)C)Cc2c1ccc(O)c2O [Example 128]; 108

Ask | Using the record for CN1CCC2=C(C1)c1ccc(O)c(O)c1CC21CCCCC1 [Example 212] , report its Intrinsic Activity (adenylate cyclase assay).
Reply | 43

Ask | Using the record for CCCCC1Cc2c(ccc(O)c2O)C2=C1CCNC2 (stereo not shown) [Example 243] , report its Intrinsic Activity (adenylate cyclase assay).
Reply | 83
